# credit: the supplement of paper PMC9112550

System: Escherichia coli TOP10
Test: shrunken log2 fold change of peptide-encoding DNA abundance (4.5 h post-induction vs induction); higher = less antimicrobial activity (less host growth inhibition)
Conditions: time post-induction: 4.5 h; library: site-saturation at positions 5, 18, 19, 20

- residue sequence: "RRIRSRPPRLPRPRPRPEGTPRP"
  shrunken log2 fold change: 0.123
- residue sequence: "RRIRTRPPRLPRPRPRPGRGPRP"
  shrunken log2 fold change: 0.605
- residue sequence: "RRIRKRPPRLPRPRPRPHSKPRP"
  shrunken log2 fold change: 0.0726
- residue sequence: "RRIRARPPRLPRPRPRPDISPRP"
  shrunken log2 fold change: 0.277
- residue sequence: "RRIRKRPPRLPRPRPRPFKVPRP"
  shrunken log2 fold change: -0.0542
- residue sequence: "RRIRLRPPRLPRPRPRPVVIPRP"
  shrunken log2 fold change: -0.0403
- residue sequence: "RRIRVRPPRLPRPRPRPSKYPRP"
  shrunken log2 fold change: -0.783
- residue sequence: "RRIRGRPPRLPRPRPRPDHRPRP"
  shrunken log2 fold change: -0.178

---

Reported shrunken log2 fold change values for a set of sequences
Tested on: Escherichia coli TOP10
Experiment: shrunken log2 fold change of peptide-encoding DNA abundance (4.5 h post-induction vs induction); higher = less antimicrobial activity (less host growth inhibition)
Details: time post-induction: 4.5 h; library: site-saturation at positions 5, 18, 19, 20

- residue sequence: "RRIRDRPPRLPRPRPRPSWEPRP"
  shrunken log2 fold change: -0.00136
- residue sequence: "RRIRARPPRLPRPRPRPEHKPRP"
  shrunken log2 fold change: 0.0692
- residue sequence: "RRIRARPPRLPRPRPRPKWKPRP"
  shrunken log2 fold change: -0.291
- residue sequence: "RRIRIRPPRLPRPRPRPVEIPRP"
  shrunken log2 fold change: -0.0212
- residue sequence: "RRIRDRPPRLPRPRPRPGDSPRP"
  shrunken log2 fold change: 0.13
- residue sequence: "RRIRPRPPRLPRPRPRPIHFPRP"
  shrunken log2 fold change: -0.241
- residue sequence: "RRIRERPPRLPRPRPRPLFDPRP"
  shrunken log2 fold change: -0.581
- residue sequence: "RRIRVRPPRLPRPRPRPYRKPRP"
  shrunken log2 fold change: -0.259
- residue sequence: "RRIRFRPPRLPRPRPRPFAIPRP"
  shrunken log2 fold change: -0.109
- residue sequence: "RRIRIRPPRLPRPRPRPDPGPRP"
  shrunken log2 fold change: -0.0404
- residue sequence: "RRIRARPPRLPRPRPRPGLRPRP"
  shrunken log2 fold change: 0.331
- residue sequence: "RRIRNRPPRLPRPRPRPMVRPRP"
  shrunken log2 fold change: 4.1
- residue sequence: "RRIRNRPPRLPRPRPRPMSQPRP"
  shrunken log2 fold change: -0.0161
- residue sequence: "RRIRKRPPRLPRPRPRPKDNPRP"
  shrunken log2 fold change: 0.297
- residue sequence: "RRIRSRPPRLPRPRPRPQVCPRP"
  shrunken log2 fold change: -0.0852
- residue sequence: "RRIRRRPPRLPRPRPRPNLQPRP"
  shrunken log2 fold change: -0.07
- residue sequence: "RRIRVRPPRLPRPRPRPFSWPRP"
  shrunken log2 fold change: -0.144
- residue sequence: "RRIRARPPRLPRPRPRPLVCPRP"
  shrunken log2 fold change: 0.483
- residue sequence: "RRIRYRPPRLPRPRPRPFMAPRP"
  shrunken log2 fold change: -0.773
- residue sequence: "RRIRNRPPRLPRPRPRPENAPRP"
  shrunken log2 fold change: -0.133
- residue sequence: "RRIRRRPPRLPRPRPRPAPCPRP"
  shrunken log2 fold change: 0.884
- residue sequence: "RRIRERPPRLPRPRPRPALMPRP"
  shrunken log2 fold change: 0.129
- residue sequence: "RRIRQRPPRLPRPRPRPGENPRP"
  shrunken log2 fold change: -0.0193
- residue sequence: "RRIRCRPPRLPRPRPRPQIAPRP"
  shrunken log2 fold change: -0.0699
- residue sequence: "RRIRPRPPRLPRPRPRPYKSPRP"
  shrunken log2 fold change: -0.0798
- residue sequence: "RRIRTRPPRLPRPRPRPPMCPRP"
  shrunken log2 fold change: 0.0176
- residue sequence: "RRIRPRPPRLPRPRPRPRWNPRP"
  shrunken log2 fold change: 0.115
- residue sequence: "RRIRTRPPRLPRPRPRPKKQPRP"
  shrunken log2 fold change: -0.15
- residue sequence: "RRIRSRPPRLPRPRPRPTSKPRP"
  shrunken log2 fold change: 0.0753
- residue sequence: "RRIRHRPPRLPRPRPRPGEAPRP"
  shrunken log2 fold change: 0.051
- residue sequence: "RRIRCRPPRLPRPRPRPLLCPRP"
  shrunken log2 fold change: -0.163
- residue sequence: "RRIRHRPPRLPRPRPRPIRPPRP"
  shrunken log2 fold change: -0.125

---

Test system: Escherichia coli TOP10
Assay: shrunken log2 fold change of peptide-encoding DNA abundance (4.5 h post-induction vs induction); higher = less antimicrobial activity (less host growth inhibition)
Conditions: time post-induction: 4.5 h; library: site-saturation at positions 5, 18, 19, 20
Catalogue of sequences with associated shrunken log2 fold change
quantity: shrunken log2 fold change

- residue sequence: "RRIRIRPPRLPRPRPRPMRDPRP"
  quantity: "shrunken log2 fold change"
  endpoint result: 0.189
- residue sequence: "RRIRCRPPRLPRPRPRPEPYPRP"
  quantity: "shrunken log2 fold change"
  endpoint result: -0.364
- residue sequence: "RRIRKRPPRLPRPRPRPIMKPRP"
  quantity: "shrunken log2 fold change"
  endpoint result: 0.16
- residue sequence: "RRIRARPPRLPRPRPRPSLEPRP"
  quantity: "shrunken log2 fold change"
  endpoint result: 0.455
- residue sequence: "RRIRPRPPRLPRPRPRPTVQPRP"
  quantity: "shrunken log2 fold change"
  endpoint result: 0.182
- residue sequence: "RRIRQRPPRLPRPRPRPGMYPRP"
  quantity: "shrunken log2 fold change"
  endpoint result: -0.35
- residue sequence: "RRIRRRPPRLPRPRPRPDESPRP"
  quantity: "shrunken log2 fold change"
  endpoint result: 0.037
- residue sequence: "RRIRHRPPRLPRPRPRPRAMPRP"
  quantity: "shrunken log2 fold change"
  endpoint result: 0.592
- residue sequence: "RRIRCRPPRLPRPRPRPSPDPRP"
  quantity: "shrunken log2 fold change"
  endpoint result: 0.215
- residue sequence: "RRIRPRPPRLPRPRPRPWVWPRP"
  quantity: "shrunken log2 fold change"
  endpoint result: 0.267
- residue sequence: "RRIRDRPPRLPRPRPRPLKGPRP"
  quantity: "shrunken log2 fold change"
  endpoint result: -0.0274
- residue sequence: "RRIRIRPPRLPRPRPRPDQGPRP"
  quantity: "shrunken log2 fold change"
  endpoint result: 0.0651
- residue sequence: "RRIRRRPPRLPRPRPRPSSEPRP"
  quantity: "shrunken log2 fold change"
  endpoint result: -0.322
- residue sequence: "RRIRNRPPRLPRPRPRPDIQPRP"
  quantity: "shrunken log2 fold change"
  endpoint result: -0.0597
- residue sequence: "RRIRARPPRLPRPRPRPLACPRP"
  quantity: "shrunken log2 fold change"
  endpoint result: 0.695

---

Tested on: Escherichia coli TOP10;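 note: peptides expressed intracellularly from a pBAD plasmid library in pooled LB shake-flask culture, induced with 0.3% L-arabinose, DNA abundance read by NGS, three biological replicates, DESeq2 with apeglm shrinkage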
Assay: shrunken log2 fold change of peptide-encoding DNA abundance (4.5 h post-induction vs induction); higher = less antimicrobial activity (less host growth inhibition)
Conditions: time post-induction: 4.5 h; library: site-saturation at positions 5, 18, 19, 20
Label true when shrunken log2 fold change is at or above -0.01; anything below gets false.

- residue sequence: "RRIRWRPPRLPRPRPRPCVFPRP"
  classification: "true"
- residue sequence: "RRIRKRPPRLPRPRPRPWNPPRP"
  classification: "true"
- residue sequence: "RRIRIRPPRLPRPRPRPQGWPRP"
  classification: "true"
- residue sequence: "RRIRPRPPRLPRPRPRPRRTPRP"
  classification: "true"
- residue sequence: "RRIRPRPPRLPRPRPRPITEPRP"
  classification: "false"
- residue sequence: "RRIRFRPPRLPRPRPRPIVMPRP"
  classification: "false"
- residue sequence: "RRIRYRPPRLPRPRPRPRCYPRP"
  classification: "true"
- residue sequence: "RRIRHRPPRLPRPRPRPSDVPRP"
  classification: "false"
- residue sequence: "RRIRARPPRLPRPRPRPLNPPRP"
  classification: "false"
- residue sequence: "RRIRIRPPRLPRPRPRPCDMPRP"
  classification: "false"
- residue sequence: "RRIRMRPPRLPRPRPRPPKFPRP"
  classification: "true"
- residue sequence: "RRIRLRPPRLPRPRPRPVFSPRP"
  classification: "false"
- residue sequence: "RRIRCRPPRLPRPRPRPENGPRP"
  classification: "false"
- residue sequence: "RRIRKRPPRLPRPRPRPVQIPRP"
  classification: "true"
- residue sequence: "RRIRVRPPRLPRPRPRPPPNPRP"
  classification: "true"
- residue sequence: "RRIRHRPPRLPRPRPRPFGGPRP"
  classification: "false"
- residue sequence: "RRIRQRPPRLPRPRPRPNYCPRP"
  classification: "false"
- residue sequence: "RRIRRRPPRLPRPRPRPFHNPRP"
  classification: "true"
- residue sequence: "RRIRLRPPRLPRPRPRPQETPRP"
  classification: "true"
- residue sequence: "RRIRHRPPRLPRPRPRPQLSPRP"
  classification: "true"
- residue sequence: "RRIRPRPPRLPRPRPRPSTKPRP"
  classification: "false"
- residue sequence: "RRIRKRPPRLPRPRPRPFWHPRP"
  classification: "true"
- residue sequence: "RRIRCRPPRLPRPRPRPWHEPRP"
  classification: "false"
- residue sequence: "RRIRYRPPRLPRPRPRPKPVPRP"
  classification: "true"
- residue sequence: "RRIRRRPPRLPRPRPRPWGRPRP"
  classification: "true"
- residue sequence: "RRIRHRPPRLPRPRPRPRAFPRP"
  classification: "false"
- residue sequence: "RRIRTRPPRLPRPRPRPNAMPRP"
  classification: "true"
- residue sequence: "RRIRVRPPRLPRPRPRPSLYPRP"
  classification: "false"
- residue sequence: "RRIRYRPPRLPRPRPRPPWDPRP"
  classification: "true"
- residue sequence: "RRIRGRPPRLPRPRPRPTNKPRP"
  classification: "true"
- residue sequence: "RRIRERPPRLPRPRPRPKVQPRP"
  classification: "true"
- residue sequence: "RRIRHRPPRLPRPRPRPYSPPRP"
  classification: "false"
- residue sequence: "RRIRERPPRLPRPRPRPLFSPRP"
  classification: "false"
- residue sequence: "RRIRIRPPRLPRPRPRPLWHPRP"
  classification: "false"
- residue sequence: "RRIRSRPPRLPRPRPRPPNKPRP"
  classification: "false"
- residue sequence: "RRIRRRPPRLPRPRPRPHPCPRP"
  classification: "true"
- residue sequence: "RRIRDRPPRLPRPRPRPNHVPRP"
  classification: "false"
- residue sequence: "RRIRMRPPRLPRPRPRPQRTPRP"
  classification: "true"
- residue sequence: "RRIRARPPRLPRPRPRPTVMPRP"
  classification: "true"
- residue sequence: "RRIRPRPPRLPRPRPRPQGAPRP"
  classification: "true"
- residue sequence: "RRIRFRPPRLPRPRPRPDQGPRP"
  classification: "false"
- residue sequence: "RRIRNRPPRLPRPRPRPTACPRP"
  classification: "true"
- residue sequence: "RRIRQRPPRLPRPRPRPAFFPRP"
  classification: "true"
- residue sequence: "RRIRMRPPRLPRPRPRPPAEPRP"
  classification: "true"
- residue sequence: "RRIRQRPPRLPRPRPRPMQSPRP"
  classification: "true"
- residue sequence: "RRIRNRPPRLPRPRPRPGERPRP"
  classification: "false"
- residue sequence: "RRIRMRPPRLPRPRPRPNIAPRP"
  classification: "true"
- residue sequence: "RRIRDRPPRLPRPRPRPPYPPRP"
  classification: "true"
- residue sequence: "RRIRSRPPRLPRPRPRPTKVPRP"
  classification: "false"
- residue sequence: "RRIRVRPPRLPRPRPRPSNQPRP"
  classification: "false"
- residue sequence: "RRIRTRPPRLPRPRPRPMWHPRP"
  classification: "false"
- residue sequence: "RRIRWRPPRLPRPRPRPDVEPRP"
  classification: "true"
- residue sequence: "RRIRWRPPRLPRPRPRPLDGPRP"
  classification: "true"
- residue sequence: "RRIRERPPRLPRPRPRPYYPPRP"
  classification: "false"
- residue sequence: "RRIRQRPPRLPRPRPRPNESPRP"
  classification: "false"
- residue sequence: "RRIRKRPPRLPRPRPRPLSKPRP"
  classification: "true"
- residue sequence: "RRIRERPPRLPRPRPRPQESPRP"
  classification: "false"
- residue sequence: "RRIRARPPRLPRPRPRPFPTPRP"
  classification: "true"
- residue sequence: "RRIRSRPPRLPRPRPRPYHLPRP"
  classification: "false"
- residue sequence: "RRIRERPPRLPRPRPRPYNDPRP"
  classification: "true"
- residue sequence: "RRIRCRPPRLPRPRPRPHDEPRP"
  classification: "false"
- residue sequence: "RRIRVRPPRLPRPRPRPTGIPRP"
  classification: "false"
- residue sequence: "RRIRKRPPRLPRPRPRPTWCPRP"
  classification: "true"
